Sourced from PubChem BioAssay

System: Aerobactin synthetase IucA (Klebsiella pneumoniae, hypervirulent)
Test: IucA enzyme inhibition, biochemical, LOPAC library, absorbance readout (AID 1346212);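 further: 100% = no compound wells and 0% = no enzyme wells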
Details: IucA enzyme assay, absorbance (OD) readout; stronger effect = lower value; concentration not given here
quantityMeasured: remaining activity (%)
Numbers only, in %.

A selection of reference data follows.
INSERT INTO measurements (compound, unitslabel, reading) VALUES
  ('CC(/C=C/c1cccc(Oc2ccc(F)cc2)c1)N(O)C(N)=O (stereo unspecified)', '%', 99.1),
  ('O=C1CC[C@@]2(O)[C@H]3Cc4ccc(O)c5c4[C@@]2(CCN3CC2CC2)[C@H]1O5', '%', 118),
  ('CC(C)Oc1cccnc1N(C)C1CCN(Cc2ccc(I)cc2)CC1', '%', 97.8),
  ('CC[N+](CC)(CC)CCOc1cccc(OCC[N+](CC)(CC)CC)c1OCC[N+](CC)(CC)CC', '%', 111);

State recorded remaining activity for all listed compounds.
1. CN1CCN(C2=Nc3ccccc3Oc3ccc(Cl)cc32)CC1
2. CCCCN1CCC(n2c(=O)[nH]c3ccccc32)CC1
3. Ic1ccccc1CNC1C2CCN(CC2)C1C(c1ccccc1)c1ccccc1 (stereo unspecified)

110
110
98.2

For each entry beneath this line, provide reported remaining activity.
1. CN1CCC(=C2c3ccccc3CC(=O)c3sccc32)CC1
2. CC(C)NCC(O)c1cc(O)cc(O)c1 (stereo unspecified)
3. N[C@H](CO)C(=O)O
4. CN1CCN(CC(=O)N2c3ccccc3C(=O)Nc3cccnc32)CC1

112
118
106
94.6

* * *

Test: polyglutamine-triggered caspase-3 activation inhibitors, cell-based (AID 1583)
Settings: polyglutamine-induced caspase-3 activation, cell assay; stronger effect = higher value; concentration not given here
quantityMeasured: inhibition
Give the number first and the unit second.

Parameter requested: inhibition. Apply to each item below.
1. CCC(C)C(=O)O[C@H]1[C@H](O)C2C(CN3CC(C)CCC3[C@@]2(C)O)C2C[C@]34O[C@]5(O)C(OC(=O)C(C)(O)CC)CC[C@@]3(C)C5C(OC(C)=O)[C@@H](OC(C)=O)C4[C@@]21O (stereo not given in full)
2. CN=C1CN(O)C(c2ccccc2)=c2cc(Cl)ccc2=N1
3. C[C@@H]1CC[C@H]2[C@@H](C)C(=O)O[C@@H]3OC4(C)CC[C@@H]1[C@]32OO4
4. CCCC(C)C1(CC)C(=O)NC(=O)NC1=O (stereo not given)
5. COC(=O)C1C(OC(=O)c2ccccc2)CC2CCC1N2C (stereo not given)
6. OC1CCCCC1N1CCC(c2ccccc2)CC1 (stereo not given)
7. CC[C@@]1(O)C(=O)OCc2c1cc1n(c2=O)Cc2cc3ccccc3nc2-1
8. CNC(C)(C)Cc1ccccc1

["-14%", "6.92%", "18.8%", "8.8%", "-2.13%", "-2.9%", "-22.8%", "-8.9%"]

Batch request: inhibition per item, same order as input.
1. N#C/C(=C\c1cccc(O)c1)C(=O)O
2. O=[N+]([O-])c1cc(O)c(O)c([N+](=O)[O-])c1

["16.4%", "-6.91%"]

* * *

Assay: sensitizers of A549 cells to miR-34 induction, primary screen, imaging, A549 dox-inducible miR-34, nuclei and caspase counts (AID 1347080)
Details: A549 miR-34 inducible, Hoechst nuclei count, 48 h; stronger effect = lower value; cell number ratio, induced over uninduced
Consider the following molecules; for each one, report its fold change.
Numbers only.

Batch request: fold change for each of the following molecules.
1. CC[C@@H](C)C(=O)O[C@H]1[C@H](O)[C@H]2[C@@H](CN3C[C@@H](C)CC[C@H]3[C@@]2(C)O)C2C[C@]34O[C@@]5(O)[C@@H](OC(=O)[C@](C)(O)CC)CC[C@@]3(C)[C@@H]5[C@@H](OC(C)=O)[C@@H](OC(C)=O)[C@H]4[C@@]21O (stereo not given in full)
2. COc1ccc(-n2nc(C(F)(F)F)cc2-c2ccc(Cl)cc2)cc1
3. CS(=O)(=O)Nc1ccc(Cc2noc(-c3ccc4[nH]cc(CCN)c4c3)n2)cc1

0.898
0.91
0.9

For every record below, what is its fold change?
1. NC(=NCc1ccc(Cl)cc1)SCCCc1cnc[nH]1
2. c1cc(N2CCNCC2)c2cnccc2c1
3. CCC1C=CC=CCC(C)C(O)[C@@](C)(O)C(=O)C(C)[C@@H](O)C(C)C(=O)C(C)C(O)C(C)C=CC(=O)OC2C(C)[C@]3(CCC(C)C(CC(C)O)O3)OC(CC1)[C@H]2C (stereo not given in full)
4. COc1cc(CNC(=O)CCCCCCC(C)C)c(I)cc1O

1: 0.963; 2: 0.965; 3: 1.1; 4: 1.02

Below are 7 molecules. Give each one its fold change.
1. c1cc(Cc2cnc[nH]2)ccn1
2. CCCCC1(C2CCCC2)Cc2cc(OCCCC(=O)O)c(Cl)c(Cl)c2C1=O (stereo not given)
3. CCCCCCCC/C=C\CCCCCCCC(=O)N[C@H](C)CO
4. COc1cc2c3cc1Oc1cc(ccc1O)C[C@@H]1c4c(cc(OC)c(O)c4Oc4cccc(c4)C[C@@H]3N(C)CC2)CC[N+]1(C)C
5. CC(=Cc1csc(C)n1)C1CC2OC2CCCC(C)C(O)C(C)C(=O)C(C)(C)C(O)CC(=O)O1 (stereo not given)
6. c1ccc(C2CNCc3ccccc32)cc1 (stereo not given)
7. CC(C)(C)NCC(O)COc1cccc2[nH]c(C#N)cc12 (stereo not given)

1. 0.985
2. 0.969
3. 0.925
4. 0.822
5. 1.08
6. 0.949
7. 0.911
